experiment: Pharmacokinetics in male Swiss Albino mouse, intravenous and oral (LC-MS/MS of plasma); type: in vivo; conditions: male, Swiss Albino, plasma; mouse, IV 3 mg/kg; read-out: Vds. (volume of distribution)
OBSERVATION_TYPE: Vd (L/kg)
Just the number please, in L/kg, no unit attached.

Exercise: // query Vd value for entry C(=NNc1cccc2cccnc12)c1c[nH]c2ccccc12
Key: 4.28

* * *

experiment: Pharmacokinetics in male Swiss Albino mouse, intravenous and oral (LC-MS/MS of plasma); type: in vivo; details: male, Swiss Albino, mouse, plasma, iv, 3 mg/kg, mouse, following intravenous administration 3 mg/kg; read-out: Half-life (converted)
OBSERVATION_TYPE: half-life

Exercise: // query half-life value for entry C(=NNc1cccc2cccnc12)c1c[nH]c2ccccc12
Key: ~1.7 h
